The reported numbers originate from ChEMBL document CHEMBL1156657.

Assay: Antitumor activity against human LNCaP-FGC cells after 72 hrs by MTT assay
Assay type: functional, cell-based
Conditions: LNCaP-Clone-FGC
We begin with a simple list: items and their reported IC50.
Record the value in µM, omitting the unit from your answer.

Here are 4 compounds together with their reported answers.
- smiles_record: "CC(C)C[C@H](O)C[C@@H](C)[C@H]1CC[C@@]2(C)[C@@H]3CC[C@H]4[C@](C)(COS(=O)(=O)[O-])[C@@H](OS(=O)(=O)[O-])CC[C@@]45C[C@@]35CC[C@]12C.[Na+].[Na+]"
  IC50 / µM: 31
- smiles_record: "CC(C)=CC(=O)C[C@@H](C)[C@H]1CC[C@@]2(C)[C@@H]3CC[C@H]4[C@](C)(COS(=O)(=O)[O-])[C@@H](OS(=O)(=O)[O-])CC[C@@]45C[C@@]35CC[C@]12C.[Na+].[Na+]"
  IC50 / µM: 31
- smiles_record: "CC(C)CC(=O)C[C@@H](C)[C@H]1CC[C@@]2(C)[C@@H]3CC[C@H]4[C@](C)(COS(=O)(=O)[O-])[C@@H](OS(=O)(=O)[O-])CC[C@@]45C[C@@]35CC[C@]12C.[Na+].[Na+]"
  IC50 / µM: 31
- smiles_record: "CC(C)=CC(=O)C[C@@H](C)[C@H]1CC[C@@]2(C)[C@@H]3CC[C@H]4[C@](C)(CO)[C@@H](O)CC[C@@]45C[C@@]35CC[C@]12C"
  IC50 / µM: 6

Dear colleague, please send me the reported IC50 for CC(C)CC(=O)C[C@@H](C)[C@H]1CC[C@@]2(C)C3=C(CC[C@]12C)[C@@]1(C)CC[C@H](OS(=O)(=O)[O-])[C@@](C)(COS(=O)(=O)[O-])[C@@H]1CC3.[Na+].[Na+] when you can.
31

Specify reported IC50 for the compound shown: CC(C)=CC(=O)C[C@@H](C)[C@H]1CC[C@@]2(C)[C@@H]3CC[C@H]4[C@](C)(CO)[C@@H](OS(=O)(=O)[O-])CC[C@@]45C[C@@]35CC[C@]12C.[Na+]
6

Using the record for CC(C)=CC(=O)C[C@@H](C)[C@H]1CC[C@@]2(C)[C@@H]3CC[C@H]4[C@](C)(COS(=O)(=O)[O-])[C@@H](O)CC[C@@]45C[C@@]35CC[C@]12C.[Na+] , state its measured IC50.
6
